The values you see were collected from PubChem BioAssay (NCI).

System: SF-268 CNS
PROCEDURE DETAILS: NCI tumour cell line growth inhibition, 48 h
REPORTED ENDPOINT: TGI

Consider the following illustrative entries.
- CCOC(=O)c1c2cccccc-2nc1Nc1cccc2c(C)ccnc12: > 10 µM
- COc1cc2c(cc1OCCCN1C(=O)c3cccc4cccc(c34)C1=O)N=C[C@@H]1CCCN1C2=O: > 100 µM

Pending compound:
Per the records, this compound ( `CCN(CC)c1ccc(/C=C/c2ccnc3ccccc23)cc1` ) has TGI equal to > 100 µM

----------
System: OVCAR-4 ovarian
PROCEDURE DETAILS: NCI tumour cell line growth inhibition, 48 h
The entries below are paired with their reported TGI.

- CC12c3ccccc3C(OC=O)(c3ccccc31)C1(C)c3ccccc3C2(OC=O)c2ccccc21: > 100 µM

Measured TGI for this entry O=C1NC(O)CCN1C1OC(CO)C(O)C1O (stereo not given) on OVCAR-4 ovarian: > 250 µM

Measured TGI for this entry `O=C1C=C(Nc2ccc(Cl)cc2C(=O)c2ccccc2)c2ccccc2C1=O` on OVCAR-4 ovarian: > 100 µM

Measured TGI for this entry `O=C(O)c1ccc(CNCc2ccccc2)cc1` on OVCAR-4 ovarian: > 100 µM

Measured TGI for this entry `COc1cc(C=O)ccc1O` on OVCAR-4 ovarian: > 100 µM
